biological target: TEM-1 β-lactamase (Escherichia coli, UniProt P62593); assay: Inhibition of representative β-lactamases: TEM-1; details: read-out: IC50 TEM-1 E. Coli
Sequence (P62593 24-286 limits assumed): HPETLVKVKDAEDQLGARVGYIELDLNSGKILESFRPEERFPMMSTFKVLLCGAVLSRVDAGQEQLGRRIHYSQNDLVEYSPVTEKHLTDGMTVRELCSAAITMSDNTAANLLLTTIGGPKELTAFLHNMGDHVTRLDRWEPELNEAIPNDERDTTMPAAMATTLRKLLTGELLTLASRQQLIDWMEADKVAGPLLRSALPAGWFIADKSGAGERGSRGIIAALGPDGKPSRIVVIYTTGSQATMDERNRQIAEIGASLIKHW
PARAMETER MEASURED: pIC50
The read-out pIC50 is expressed as -log10 of concentration in moles per litre.

Enter pIC50 (test system TEM-1 β-lactamase (Escherichia coli, UniProt P62593)) for C[C@]1(COC(=O)Cc2ccc(O)c(O)c2)[C@H](C(=O)O)N2C(=O)/C(=C/c3ccccn3)[C@H]2S1(=O)=O [JDB/LN-1-255]
10.52

====

biological target: AmpC β-lactamase (Pseudomonas aeruginosa); assay: Inhibition of representative β-lactamases: AmpC P. aeruginosa; type: biochemical
Sequence (P24735 27-397): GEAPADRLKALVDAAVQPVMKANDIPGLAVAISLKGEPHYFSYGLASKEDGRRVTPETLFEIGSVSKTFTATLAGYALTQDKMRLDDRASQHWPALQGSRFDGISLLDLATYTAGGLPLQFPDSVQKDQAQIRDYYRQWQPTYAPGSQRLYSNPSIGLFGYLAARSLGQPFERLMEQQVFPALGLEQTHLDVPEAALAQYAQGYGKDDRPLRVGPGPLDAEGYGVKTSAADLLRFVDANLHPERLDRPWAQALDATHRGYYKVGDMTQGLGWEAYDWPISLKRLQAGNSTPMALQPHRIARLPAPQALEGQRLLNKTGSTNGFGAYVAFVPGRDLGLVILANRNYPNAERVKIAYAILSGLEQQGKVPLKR
PARAMETER MEASURED: pIC50
Please note pIC50 is a logarithmic value: minus log10 of concentration in mol/L. Answer with that number alone.

Give pIC50 for the following molecule: C[C@]1(COC(=O)Cc2ccc(O)c(O)c2)[C@H](C(=O)O)N2C(=O)/C(=C/c3ccccn3)[C@H]2S1(=O)=O
8.22

Recorded values, source patent US8575144B2.
